assayed-target: T1, Mcl-1, Q07820
T1 chain: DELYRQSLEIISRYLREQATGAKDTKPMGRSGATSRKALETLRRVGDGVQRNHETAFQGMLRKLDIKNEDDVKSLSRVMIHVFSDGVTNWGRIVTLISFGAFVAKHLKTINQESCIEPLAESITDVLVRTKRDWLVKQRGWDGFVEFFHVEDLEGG
experiment-notes: peptide SPOT array, c-Myc-tagged receptor at 1 uM or 100 nM, anti-c-Myc-Cy3
readout-label: SPOT signal as a fraction of Bim BH3's signal on the same receptor and array

> print(dat)
                               binder  reported.value
1  KRAAEMMASLLKDLAEIGIAVGNNDV [KIF5B]            0.02

(A) RAIPIKQGILLKRSGKSLNKEWKKKY [AGAP3]
(B) SEIMHSFAKCIEVMLDGCLNNEHFEE [IPO5]
(C) GSGLHGWAFTLKQFLEMYVAKFAAKG [EEF2]
Q: Put the items in sequence by SPOT signal as a fraction of Bim BH3's signal on the same receptor and array, from largest down. List the labels, following the order given in the request.
A: A, C, B

(P) HRTSNVLTLSLKRFANFSGGKITKDV [USP36]
(Q) LWAAQRYGRELRRMSDEFVDSFKKGL [BAD]
Q: I'm curious whether P or Q has the smaller SPOT signal as a fraction of Bim BH3's signal on the same receptor and array number. Which is it? Reply with the label of the item you choose.
A: P
